# Experiment: Human HepG2 cell viability assay in 384 well format
# Assay type: toxicity, cell-based
# Set-up: dose 125 nL, time 70.5 hour; concentration not given beside the values
# Test Parameters: HepG2 cells, read-out: Inhibition
Form field: cytotoxicity at 70.5 h (one value per entry).
Reported Property: cytotoxicity at 70.5 h

{"Compound": "O=C(c1cnccn1)N1CCN2C[C@H](Oc3cccnc3)C[C@H]2C1", "Result": "4.06%"}
{"Compound": "O=C(NC1CCCC1)N1C[C@H]2CN(c3ccccn3)C[C@@]2(C(=O)O)C1", "Result": "6.72%"}
{"Compound": "CC(C)CS(=O)(=O)N1C[C@H]2C[C@H](C(=O)N3CCN(C)CC3)[C@@H](C1)O2", "Result": "-3.23%"}
{"Compound": "Cc1nc(N)ncc1C(=O)N1CCCC(CCc2ccc(F)c(F)c2)C1 (centres undefined)", "Result": "-16.6%"}
{"Compound": "O=C1COC2(COCCN(c3cnccn3)C2)CN1c1cccc(F)c1 (centres undefined)", "Result": "-6.69%"}
{"Compound": "Nc1nc(N)c2c(n1)OC1(CCN(C(=O)CC3CCCCN3)CC1)C2 (centres undefined)", "Result": "-5.34%"}
{"Compound": "Cc1csc2c(=O)n(CCSc3cnn[nH]3)cnc12", "Result": "-7.83%"}
{"Compound": "CC1CCN(CCNC(=O)C2CCN(C(=O)C3CC3)CC2)CC1", "Result": "-3.28%"}
{"Compound": "CC(C)c1nc(CN(C)Cc2ncccc2C(=O)O)cs1", "Result": "4.17%"}
{"Compound": "CC(=O)N1CCC(c2ccnc(Nc3cncnc3)n2)C1 (centres undefined)", "Result": "-32.6%"}
{"Compound": "CN(C)C(=O)Cn1cnc2c(Br)cccc2c1=O", "Result": "-10.4%"}
{"Compound": "CC(C)CCOc1ccc(C(C)NC(=O)CSCC(N)=O)cc1 (centres undefined)", "Result": "-8.07%"}
{"Compound": "CCn1c(C)nnc1SCCNc1cc(COC)ncn1", "Result": "-22.7%"}
{"Compound": "COCc1ccccc1C(=O)NCC(O)c1ccc(Cl)s1 (centres undefined)", "Result": "0.31%"}
{"Compound": "NC(=O)c1csc(C(=O)N2CCCC(n3ccnc3)C2)c1 (centres undefined)", "Result": "-8.21%"}
{"Compound": "Cc1cccc(-c2noc(CN3CCc4nn(C)c(=O)cc4C3)n2)c1", "Result": "8.08%"}
{"Compound": "CC(=O)NC[C@]1(O)CCN(C(=O)c2ccc(F)c(Cl)c2)C[C@H]1O", "Result": "-6.22%"}
{"Compound": "COc1ccnc(CNc2nc(C)nc(C)c2C)c1", "Result": "3%"}
{"Compound": "Cc1cc2n(n1)CC(CNCc1ccc(-n3cccn3)cc1)CN2 (centres undefined)", "Result": "-0.128%"}
{"Compound": "COc1cccc(CN(C)Cc2nc(C(C)C)no2)c1", "Result": "14.7%"}
{"Compound": "CCc1ccccc1C(=O)N1CCCC1CC(=O)c1cnn(C)c1 (centres undefined)", "Result": "-13.4%"}
{"Compound": "CCn1ccnc1CN(C)C(=O)Cn1ccc2ccccc2c1=O", "Result": "-10.4%"}
{"Compound": "N#Cc1ccc(CNc2cnn(CCN3CCOCC3)c2)cc1", "Result": "42.1%"}
{"Compound": "FC(F)(F)CCN(Cc1ccon1)C1CCC1", "Result": "-7.34%"}
